Entry source: patent US20170313764A1

- TEST TARGET: E1E2 of HCV isolate AMS.2b.20876551.kloon21 (genotype 2b) (Hepatitis C virus genotype 2b)
- TEST METHOD NOTES: cell-based or functional assay
The following binders are listed with their measured IC50, HCVpp neutralization values.
# output: number + unit

Some entries whose results are on file:
[
  {
    "BINDER": "AT12-009 (antibody, V domains shown) VH: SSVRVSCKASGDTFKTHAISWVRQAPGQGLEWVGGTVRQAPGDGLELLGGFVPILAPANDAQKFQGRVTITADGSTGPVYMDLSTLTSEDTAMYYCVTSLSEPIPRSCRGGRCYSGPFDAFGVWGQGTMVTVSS VL: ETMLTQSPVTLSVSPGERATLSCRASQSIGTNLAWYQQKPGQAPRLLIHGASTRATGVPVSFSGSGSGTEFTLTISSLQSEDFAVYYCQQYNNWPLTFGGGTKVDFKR",
    "IC50, HCVpp neutralization": "0.06 mg/L"
  },
  {
    "BINDER": "AT12-011 (antibody, V domains shown) VH: QVQLVQSGAEVKKPGSSVKVSCKASGGTFSGYGITWVRQAPGQGLEWMGTIIPVSATETYAQRLQGRVTISADEHSTTSYMEVSSLKSEDTALYYCARHDYFWGTPLDIWGQGTMVIVSS VL: EIVLTQSPDFQSVTPKEKVTITCRASQSIGSNLHWYQQKPGQSPKLLIKYASQSFSGVPSRFSGSGSGTDFTLTINSLEAEDAATYFCHQSYNLPRTFGGGTKVEIKR",
    "IC50, HCVpp neutralization": "27.5 mg/L"
  }
]

Give its IC50, HCVpp neutralization value. Item: AT12-007 (antibody, V domains shown) VH: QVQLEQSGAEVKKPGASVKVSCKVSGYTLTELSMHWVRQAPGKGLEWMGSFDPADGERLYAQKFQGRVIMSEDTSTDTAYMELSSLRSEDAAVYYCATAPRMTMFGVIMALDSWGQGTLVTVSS VL: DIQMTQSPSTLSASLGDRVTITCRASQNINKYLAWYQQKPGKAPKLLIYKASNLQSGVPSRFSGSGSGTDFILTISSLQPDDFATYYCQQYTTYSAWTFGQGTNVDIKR
0.26 mg/L

Give its IC50, HCVpp neutralization value. Item: AT12-010 (antibody, V domains shown) VH: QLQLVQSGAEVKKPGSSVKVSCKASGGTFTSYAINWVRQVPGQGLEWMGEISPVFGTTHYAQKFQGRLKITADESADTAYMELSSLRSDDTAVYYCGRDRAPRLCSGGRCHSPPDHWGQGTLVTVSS VL: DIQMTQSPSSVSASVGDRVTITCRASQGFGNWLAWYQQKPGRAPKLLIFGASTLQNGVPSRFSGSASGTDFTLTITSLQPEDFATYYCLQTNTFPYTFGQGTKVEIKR
0.61 mg/L
